Biological target: human NOX4 (Homo sapiens)
Construct: The full-length human NOX4 (NM_016931.3) transcript was cloned
Sequence (Q9NPH5 1-578): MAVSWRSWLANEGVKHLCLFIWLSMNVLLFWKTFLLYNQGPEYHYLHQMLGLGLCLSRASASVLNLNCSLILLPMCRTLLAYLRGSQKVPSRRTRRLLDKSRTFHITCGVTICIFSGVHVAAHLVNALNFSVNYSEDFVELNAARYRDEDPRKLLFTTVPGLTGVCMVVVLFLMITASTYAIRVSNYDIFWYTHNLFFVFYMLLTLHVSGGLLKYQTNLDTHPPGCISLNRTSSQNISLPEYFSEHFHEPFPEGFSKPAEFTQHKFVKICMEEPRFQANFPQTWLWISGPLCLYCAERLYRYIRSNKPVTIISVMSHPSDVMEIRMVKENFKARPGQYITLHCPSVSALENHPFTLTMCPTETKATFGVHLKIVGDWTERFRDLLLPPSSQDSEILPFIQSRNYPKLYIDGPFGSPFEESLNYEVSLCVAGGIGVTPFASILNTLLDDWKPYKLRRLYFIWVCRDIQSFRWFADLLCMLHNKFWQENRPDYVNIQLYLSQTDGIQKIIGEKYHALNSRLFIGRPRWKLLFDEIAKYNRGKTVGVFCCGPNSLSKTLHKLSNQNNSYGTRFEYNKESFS
Sequence (P13498 1-195 partner): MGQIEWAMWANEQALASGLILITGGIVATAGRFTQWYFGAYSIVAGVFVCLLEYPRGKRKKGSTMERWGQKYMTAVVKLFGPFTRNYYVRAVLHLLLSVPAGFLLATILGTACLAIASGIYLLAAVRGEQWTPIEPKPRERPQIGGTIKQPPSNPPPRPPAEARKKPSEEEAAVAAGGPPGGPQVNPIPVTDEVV
Assay: Amplex Red activity assay (cellular H2O2 formation in hNOX4 T-REx-293 cells)
Conditions: tet-induced 24 h, extracellular H2O2 by Amplex Red, 60 min 25° C., geometric mean if determined several times
property.measured: IC50 (nM)
Field: numeric (nM). Do not append units.

Observe how each entry below is paired with its result.
# compound, measurement.target, unit.label, IC50
data = [
    ("CN1CCOc2ccc(C(=O)Nc3ccc4oc(N5CCCCC5)nc4c3)cc21", "human NOX4 (Homo sapiens)", "nM", 3860),
    ("O=C(Nc1ccc2oc(N3CC(F)(F)C3)nc2c1)c1ccc2c(c1)OCO2", "human NOX4 (Homo sapiens)", "nM", 9530),
]

query: Quick check: IC50 of "O=C(Nc1ccc2oc(N3CCC34CCC4)nc2c1)c1ccc2c(c1)OCO2" ?
result: 434

query: Fill blank: measured IC50 of the compound "O=C(Nc1ccc2oc(N(C3CC3)C3COC3)nc2c1)c1ccc2c(c1)CCCO2" is ____.
result: 2860

query: # query: IC50 of entry "O=C(Nc1ccc2oc(N3CCCCC3)nc2c1)c1ccc2c(c1)CCCO2"
result: 1880

###

biological target: human NOX4 (Homo sapiens, UniProt Q9NPH5); construct: The full-length human NOX4 (NM_016931.3) transcript was cloned; assay: Amplex Red activity assay (cellular H2O2 formation in hNOX4 T-REx-293 cells); conditions: tet-induced 24 h, extracellular H2O2 by Amplex Red, 60 min 25° C., geometric mean if determined several times
Label Satisfied when IC50 is strictly below 3000 nM; otherwise label Not satisfied.

# molecule, measurement.target, category
records = [
    ("CN(C)C1CCN(c2nc3cc(NC(=O)c4ccc5c(c4)CCO5)ccc3o2)CC1 [Example 14, formic acid]", "human NOX4 (Homo sapiens, UniProt Q9NPH5)", "Satisfied"),
    ("O=C(Nc1ccc2oc(N3CCC(F)(F)CC3)nc2c1)c1ccc2c(c1)OCCO2 [Example 170]", "human NOX4 (Homo sapiens, UniProt Q9NPH5)", "Satisfied"),
    ("CN1CCOc2ccc(C(=O)Nc3ccc4oc(N5CCC(O)CC5)nc4c3)cc21 [Example 186]", "human NOX4 (Homo sapiens, UniProt Q9NPH5)", "Not satisfied"),
    ("CCN(CC)c1nc2cc(NC(=O)c3ccc4c(c3)N(C)CCO4)ccc2o1 [Example 194]", "human NOX4 (Homo sapiens, UniProt Q9NPH5)", "Not satisfied"),
    ("O=C(Nc1ccc2sc(N3CCCC(F)(F)C3)nc2c1)c1ccc2c(c1)CCO2 [Example 89]", "human NOX4 (Homo sapiens, UniProt Q9NPH5)", "Satisfied"),
]

Then there is this molecule:
query: Answer whether the molecule O=C(Nc1ccc2sc(N3CC4(CCO4)C3)nc2c1)c1ccc2c(c1)CCO2 [Example 104] has IC50 strictly less than 3000 nM
result: Not satisfied
